system name: human recombinant CCR3 receptors (Homo sapiens, UniProt P51677)
Construct: expressed in transfected cells
Sequence (P51677 whole entry): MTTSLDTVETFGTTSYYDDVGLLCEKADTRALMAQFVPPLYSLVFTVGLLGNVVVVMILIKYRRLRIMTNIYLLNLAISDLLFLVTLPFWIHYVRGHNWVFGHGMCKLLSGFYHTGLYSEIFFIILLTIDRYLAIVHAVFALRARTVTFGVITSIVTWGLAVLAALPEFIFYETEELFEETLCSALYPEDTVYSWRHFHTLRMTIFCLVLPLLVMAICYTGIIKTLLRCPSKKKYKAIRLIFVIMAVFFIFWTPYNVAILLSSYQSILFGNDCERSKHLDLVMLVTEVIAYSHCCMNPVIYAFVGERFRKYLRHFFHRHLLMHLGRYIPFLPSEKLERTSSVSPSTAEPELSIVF
procedure details: Compound affinity at human recombinant CCR3 receptors by radioligand competition on CHO-K1 cell membranes
Type: binding
stated conditions: competition of 2 nM [3H]-4-(2,4-dichloro-3-methylphenoxy)-1'-[4-(methylsulfonyl)benzoyl]-1,4'-bipiperidine, 2 h at 37° C., mean of minimum 2 experiments, Cheng-Prussof correction of pIC50, read-out: CCR3 pKi (converted)
quantity measured: Ki (nM)

Answered examples (5):
In [3]: df
Out[3]:
                                   compound  assay_value
0  O=C(CSc1ncc(C(=O)O)cc1Cl)NC[C@H]1CN(Cc2ccc(Cl)c(Cl)c2)CCO1        0.251
1  O=C(CSc1ccc(C(=O)O)cc1C(F)(F)F)NC[C@H]1CN(Cc2ccc(Cl)c(Cl)c2)CCO1          0.2
2  Cc1c(CN2CCOC(CNC(=O)CSc3nc(N)c(C(=O)O)cc3F)C2)ccc(Cl)c1Cl (stereo not shown) [Example 10A]          0.2
3  O=C(CSc1ccc(C(=O)O)cc1)NC[C@H]1CN(Cc2ccc(Cl)c(Cl)c2)CCO1        0.398
4  O=C(CSc1cccc(C(=O)O)c1)NC[C@H]1CN(Cc2ccc(Cl)c(Cl)c2)CCO1        0.501

(a) Cc1cc(F)ccc1CN1CCO[C@@H](CNC(=O)CSc2ccc(C(=O)O)cc2F)C1 [Example 31A]
(b) Cc1cc(CN2CCO[C@@H](CNC(=O)CSc3ccc(C(=O)O)cc3F)C2)ccc1Cl [Example 16A]
Param pair: a , b . Output: the one whose Ki is numerically greater. To answer, give the label that identifies your chosen option.
a
(a: 1 nM, b: 0.251 nM)
